Data origin, for the record: PubChem BioAssay AID652273

system: C. elegans VP596 hsp-16.2 GFP/RFP after heat shock; assay: hsp-16.2 heat-shock reporter inhibition in nematodes, SAR follow-up, counter-screen for SKN-1 inhibitor project, whole organism, C. elegans VP596, GFP/RFP ratio, round 2 (AID 652273)
Calls of active or inactive are those of the source.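 Rule for the calls: active = compounds lowering heat-shock reporter fluorescence with mean IC50 at or below 15 µM, flagged as SKN-1 screen artifacts; inactive = the rest.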
Would you mind telling me the reported IC50 of each entry?

// solved cases for IC50 follow
Find the recorded IC50 belonging to "Clc1ccc(COc2c(Cl)cc(CNC3CCCC3)cc2Cl)cc1" and report it.
> 64 µM (inactive)

Find the recorded IC50 belonging to "CCOc1cc(CN2CCCC2)cc(Cl)c1OCc1ccc(F)cc1" and report it.
> 64 µM (inactive)

Find the recorded IC50 belonging to "COc1cc(CNC2CCCC2)cc(Cl)c1OCc1ccc(Cl)cc1" and report it.
> 64 µM (inactive)

Find the recorded IC50 belonging to "C#CCNCc1cc(Cl)c(OCc2ccc(Cl)cc2)c(OCC)c1" and report it.
> 64 µM (inactive)

Find the recorded IC50 belonging to "CCOc1cc(CN2CCCCC2)cc(Cl)c1OCc1ccc(Cl)cc1" and report it.
> 64 µM (inactive)

Find the recorded IC50 belonging to "CCOc1cc(CN(C(C)=O)C2CCCC2)cc(Cl)c1OCc1ccc(Cl)cc1" and report it.
> 64 µM (inactive)

Find the recorded IC50 belonging to "CCOc1cc(CNC2CC2)cc(Cl)c1OCc1ccc(C#N)cc1" and report it.
> 64 µM (inactive)

Find the recorded IC50 belonging to "CCOc1cc(CNC2CCCC2)cc(Cl)c1OCc1ccc(Cl)cc1F" and report it.
> 64 µM (inactive)

Dear colleague, could you send me IC50 for each of the items below? Thanks.
1. CCOc1cc(CN2CCOCC2)cc(Cl)c1OCc1ccc(F)cc1
2. CCOc1cc(CN2CCCC2)cc(Cl)c1OCc1ccc(Cl)cc1
3. CCOc1cc(CNCC2CC2)cc(Cl)c1OCc1ccc(Cl)cc1

1: > 64 µM (inactive); 2: > 64 µM (inactive); 3: > 64 µM (inactive)
